Target: Metabotropic glutamate receptor 8 (Rattus norvegicus) (UniProt P70579)
Sequence (P70579 whole entry, looked up): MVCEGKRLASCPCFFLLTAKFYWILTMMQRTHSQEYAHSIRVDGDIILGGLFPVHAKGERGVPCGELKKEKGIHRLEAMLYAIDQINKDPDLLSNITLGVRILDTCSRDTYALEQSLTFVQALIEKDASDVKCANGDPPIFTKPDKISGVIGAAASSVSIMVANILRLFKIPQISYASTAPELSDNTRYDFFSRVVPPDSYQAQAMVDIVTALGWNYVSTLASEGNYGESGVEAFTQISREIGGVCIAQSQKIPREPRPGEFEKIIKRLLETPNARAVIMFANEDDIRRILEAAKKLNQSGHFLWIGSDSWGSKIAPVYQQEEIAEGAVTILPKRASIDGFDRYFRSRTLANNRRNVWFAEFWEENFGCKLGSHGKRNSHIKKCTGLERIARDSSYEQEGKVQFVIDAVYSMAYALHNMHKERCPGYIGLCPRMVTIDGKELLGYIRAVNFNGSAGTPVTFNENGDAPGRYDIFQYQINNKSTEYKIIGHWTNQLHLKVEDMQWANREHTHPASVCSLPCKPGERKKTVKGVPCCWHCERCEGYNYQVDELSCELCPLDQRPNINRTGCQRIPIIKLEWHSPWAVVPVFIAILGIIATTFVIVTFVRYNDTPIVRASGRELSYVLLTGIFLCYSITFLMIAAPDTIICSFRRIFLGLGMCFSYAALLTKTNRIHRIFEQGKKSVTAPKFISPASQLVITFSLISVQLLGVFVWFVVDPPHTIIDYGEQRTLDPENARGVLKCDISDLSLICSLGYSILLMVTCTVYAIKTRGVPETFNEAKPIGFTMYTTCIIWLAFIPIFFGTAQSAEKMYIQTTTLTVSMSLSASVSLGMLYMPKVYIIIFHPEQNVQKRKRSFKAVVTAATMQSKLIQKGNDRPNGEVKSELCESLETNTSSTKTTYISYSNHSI
Test: mGluR8 Gi/Go-coupled signaling modulation – cell-based, rat, thallium flux, HTS, primary screen (AID 488969)
Conditions: HEK293 rat mGluR8, GIRK thallium flux, FluoZin2; at 10 µM; stronger effect = higher value; submaximal glutamate (EC20) added with thallium
In all, about 110,000 compounds were measured (“z-score”: median about -0.1, highest 2% from about 2 on). What follows is part of a selection rich in the highest values, with near analogues and random picks from the rest.
Label no if z-score falls below -0.09; label yes in every other case.

# Compound, Label value
records = [
    ("Cn1c(C(=O)NCCN2CCOCC2)cc2c(=O)n(C)c3ccccc3c21", "no"),
    ("Cn1c(C(=O)NCCCN2CCCC2=O)cc2c(=O)n(C)c3ccccc3c21", "no"),
    ("CC1CCN(CCCNC(=O)c2cc3c(=O)n(C)c4ccccc4c3n2C)CC1", "yes"),
    ("COn1c(=O)c(-c2cccs2)[n+]([O-])c2ccccc21", "yes"),
    ("COc1cc(C#CC#CCN2CCCCC2)ccc1O", "yes"),
    ("CC(C)CC(=O)Nc1nnn(C)n1", "yes"),
    ("COC(=O)COc1ccc(S(=O)(=O)Nc2ccc3c(c2)OCO3)cc1", "no"),
    ("CCOC(=O)C1CCCN(C(=O)c2cc(-c3ccc(C)cc3)on2)C1 (centres undefined)", "no"),
    ("CCOn1c(=O)c(-c2cccs2)[n+]([O-])c2ccccc21", "no"),
    ("CCOC(=O)C1CCCN(C(=O)c2cc(-c3ccccc3)on2)C1 (centres undefined)", "yes"),
    ("O=C(NNC(=S)Nc1cccc(C(F)(F)F)c1)c1ccccc1Cl", "yes"),
    ("COc1c(C)cccc1C(=O)Nc1cc(-c2nn3c(C)nnc3s2)ccc1C", "no"),
    ("CC1CCCC(C)N1CCCNC(=O)c1cc2c(=O)n(C)c3ccccc3c2n1C (centres undefined)", "yes"),
    ("CCCn1nnc(NC(=O)COc2cc(C)ccc2C(C)C)n1", "yes"),
    ("Cn1c(C(=O)NCCCN2CCN(c3ccccc3F)CC2)cc2c(=O)[nH]c3ccccc3c21", "yes"),
    ("CC(C)Oc1cccc(C(=O)NC(=S)Nc2ccccc2)c1", "yes"),
    ("Cn1nnc(NC(=O)COc2ccc(C3CCCCC3)cc2)n1", "yes"),
    ("CC(Sc1nc(-c2ccccc2)cc(C(F)(F)F)n1)C(=O)N1CCOCC1 (centres undefined)", "no"),
    ("COc1ccc2[nH]c3c(Cl)ncnc3c2c1", "no"),
    ("CCCn1nnnc1NC(=O)c1cccs1", "yes"),
    ("CCOC(=O)C1CCCN(C(=O)c2cccs2)C1 (centres undefined)", "no"),
    ("CCCn1nnnc1NC(=O)c1ccc2ccccc2c1", "yes"),
    ("CCCN1C2=NS(=O)(=O)CCN2c2ccccc21", "yes"),
]

###

Molecular target: Metabotropic glutamate receptor 8 (Rattus norvegicus)
Assay: mGluR8 Gi/Go-coupled signaling modulation – cell-based, rat, thallium flux, HTS, primary screen (AID 488969)
Details: HEK293 rat mGluR8, GIRK (G protein-gated inwardly rectifying potassium channel) thallium flux, FluoZin2; at 10 µM; stronger effect = higher value; submaximal glutamate (EC20) added with thallium
Whole data set: some 110,000 compounds, median “z-score” near -0.1, cut for the highest 2% near 2. The sample holds the highest values, similar compounds and a random draw of the others, so the mix is not that of the screen.

# Compound, z-score
records = [
    ("COc1cccc2sc(Nc3nc4ccc(NC(C)=O)cc4s3)nc12", -0.147),
    ("CCOc1cc(N2CCOCC2)c(OCC)cc1NC(=O)COC(=O)c1cccc2ccccc12", -0.0215),
    ("Fc1ccc(NC(=S)N/N=C/c2cccc(Br)c2)c(F)c1", 3.61),
    ("c1ccc(Nc2nc(-c3ccccn3)cs2)cc1", -0.545),
    ("CCOC(=O)C1=C(CNCc2ccccc2Cl)NC(=O)NC1c1ccc2c(c1)OCO2 (stereo not drawn)", 0.278),
    ("COc1cccc2sc(Nc3nc(-c4ccccn4)cs3)nc12", 5.31),
    ("Cc1conc1NC(c1cccs1)c1ccc2cccnc2c1O (stereo not drawn)", 3.41),
    ("COc1cccc2sc(Nc3nnc(-c4cccs4)o3)nc12", 17.4),
    ("Cc1ccccc1-n1nc(CSc2nc3ccccc3[nH]2)c(-c2ccccc2)c1N", -0.755),
    ("CCc1nnc(NC(=O)CN2CCN(c3cccc(OC)c3)CC2)s1", 0.136),
    ("Cc1cc(NC(c2cccnc2)c2ccc3cccnc3c2O)no1 (stereo not drawn)", -0.344),
    ("CCOc1cc(N2CCOCC2)c(OCC)cc1NC(=O)Cc1cccc2ccccc12", -0.178),
    ("Cc1ccc(NC(=S)N/N=C/c2ccc(Cl)c([N+](=O)[O-])c2)cc1", -0.0758),
    ("COc1cccc2sc(Nc3nc(-c4cc5ccccc5oc4=O)cs3)nc12", 0.111),
    ("COc1cc2nc(-c3cccs3)oc(=O)c2cc1OC", -0.693),
    ("Cc1cc(NC(c2ccc(Cl)cc2)c2ccc3cccnc3c2O)no1 (stereo not drawn)", 1.61),
    ("CCOC(=O)c1sc(Nc2nc3c(OC)cccc3s2)cc1C", -0.137),
    ("CCOc1cc(N2CCOCC2)c(OCC)cc1NC(=O)COC(=O)CCc1c[nH]c2ccccc12", 8.03),
    ("COc1ccc(/C=N/NC(=S)Nc2ccccc2)cc1COc1ccccc1F", -0.0868),
    ("C=CCNC(=S)Nc1ccc(Br)cc1F", -0.377),
    ("Fc1ccc(NC(=S)N/N=C/c2ccc(F)c(F)c2)c(F)c1", 13),
    ("CCCCNC(=O)C(=O)N/N=C/c1cccc(Br)c1", 0.475),
    ("CCn1c(CNC(=O)c2ccco2)nnc1SCC(=O)Nc1cc(C)c(C)cc1Br", -0.121),
]
